Below is a list of entries, each paired with its recorded IC50 value.
molecular target: Amine oxidase [flavin-containing] B (Homo sapiens); assay: biochemical
Sequence (P27338 whole entry): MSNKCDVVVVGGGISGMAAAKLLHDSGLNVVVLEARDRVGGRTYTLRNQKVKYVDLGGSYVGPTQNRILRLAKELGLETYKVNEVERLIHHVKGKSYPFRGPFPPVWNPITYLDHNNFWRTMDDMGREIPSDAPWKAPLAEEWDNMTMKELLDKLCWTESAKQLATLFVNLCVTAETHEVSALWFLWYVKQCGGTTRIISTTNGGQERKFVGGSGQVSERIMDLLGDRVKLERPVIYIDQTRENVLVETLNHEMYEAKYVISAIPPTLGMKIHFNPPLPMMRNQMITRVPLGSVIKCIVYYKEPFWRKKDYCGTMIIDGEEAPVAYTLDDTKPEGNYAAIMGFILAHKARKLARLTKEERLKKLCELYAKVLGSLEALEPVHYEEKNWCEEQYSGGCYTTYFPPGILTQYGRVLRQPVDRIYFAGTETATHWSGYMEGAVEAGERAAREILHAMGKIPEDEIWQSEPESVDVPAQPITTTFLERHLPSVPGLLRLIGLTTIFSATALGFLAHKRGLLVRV
Description: Inhibition of human recombinant microsomal MAOB expressed in baculovirus infected BTI-TN-5B1- 4 cells using p-tyramine as substrate assessed as decrease in H2O2 production after 15 mins by amplex red-based fluorescence assay
Field: numeric (µM). Do not append units.

// known answers, use as guide
[
  {
    "chemical-string": "Cc1ccc2occ(C(=O)Nc3ccccc3)c(=O)c2c1",
    "IC50 [µM]": 0.0214
  },
  {
    "chemical-string": "COc1ccc2oc(=O)c(C(=O)Nc3ccc(Cl)cc3)cc2c1",
    "IC50 [µM]": 0.0189
  }
]

Let us examine a further case.
Prompt: Find the recorded IC50 belonging to "Cc1ccc2occ(C(=O)Nc3cccc(Cl)c3)c(=O)c2c1" and report it.
Response: 0.0042
